ASSAYED_SYSTEM: human ether-à-go-go-related gene (hERG) potassium channel (human, UniProt Q12809);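 further: peak tail current of the secondary pulse compared with the same well before compound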
Sequence (Q12809 whole entry, looked up): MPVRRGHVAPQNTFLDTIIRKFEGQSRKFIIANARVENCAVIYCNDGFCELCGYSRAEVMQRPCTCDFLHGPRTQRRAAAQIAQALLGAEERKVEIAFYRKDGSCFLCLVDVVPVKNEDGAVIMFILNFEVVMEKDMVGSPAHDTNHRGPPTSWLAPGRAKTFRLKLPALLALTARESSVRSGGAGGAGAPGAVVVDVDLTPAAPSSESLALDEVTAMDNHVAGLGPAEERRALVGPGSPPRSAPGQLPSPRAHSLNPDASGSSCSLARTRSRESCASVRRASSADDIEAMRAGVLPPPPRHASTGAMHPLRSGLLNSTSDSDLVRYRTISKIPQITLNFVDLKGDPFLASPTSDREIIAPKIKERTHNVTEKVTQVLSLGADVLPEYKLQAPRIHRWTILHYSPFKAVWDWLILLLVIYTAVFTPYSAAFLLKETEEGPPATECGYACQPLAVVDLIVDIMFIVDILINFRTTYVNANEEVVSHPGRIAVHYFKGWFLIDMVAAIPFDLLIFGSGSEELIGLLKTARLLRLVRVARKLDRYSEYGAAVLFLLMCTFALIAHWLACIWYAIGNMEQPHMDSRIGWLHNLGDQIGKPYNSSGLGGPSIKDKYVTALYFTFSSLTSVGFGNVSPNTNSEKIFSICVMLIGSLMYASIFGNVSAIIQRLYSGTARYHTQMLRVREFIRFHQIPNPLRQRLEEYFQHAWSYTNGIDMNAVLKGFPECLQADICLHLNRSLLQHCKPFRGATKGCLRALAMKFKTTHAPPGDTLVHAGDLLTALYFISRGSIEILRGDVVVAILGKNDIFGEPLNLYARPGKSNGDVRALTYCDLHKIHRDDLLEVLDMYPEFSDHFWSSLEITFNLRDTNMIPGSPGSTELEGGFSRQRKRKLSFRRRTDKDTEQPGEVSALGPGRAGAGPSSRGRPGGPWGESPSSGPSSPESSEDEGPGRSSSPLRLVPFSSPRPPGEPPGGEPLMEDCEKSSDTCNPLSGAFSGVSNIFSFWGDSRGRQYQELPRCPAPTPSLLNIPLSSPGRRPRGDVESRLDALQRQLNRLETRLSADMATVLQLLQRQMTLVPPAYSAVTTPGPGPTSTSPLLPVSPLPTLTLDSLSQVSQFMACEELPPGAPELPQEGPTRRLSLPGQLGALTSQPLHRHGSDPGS
PROCEDURE_SUMMARY: primary screen, population patch clamp on CHO cells stably expressing hERG; higher = less effect of the substance
Protocol: Briefly, Chinese hamster ovary (CHO) cells stably expressing the hERG channel were dislodged from tissue culture flasks and dispensed into PPC plates. […] During the recording, background leak currents were estimated by a 100 ms step to -80 mV from an initial holding potential of -70 mV and subtracted from the subsequent current measurement. The campaign was conducted in two phases using slight differences in recording protocol. […]
Among all 310,000 compounds or so, about 14,000 (4.5%) showed an effect of 50% or more. Effects have a minus sign here. Many of the other results were omitted from the sample, so strong results are more common in it than they were.
PARAMETER: hERG current change (%, negative = inhibition) at 10uM (%)

>>> result("Cc1ccc(NC(=O)c2ccc(Cl)c(S(=O)(=O)N3CCCCCC3)c2)nc1")
-57.9
>>> result("Cc1cccc(NC(=O)c2ccc(Cl)c(S(=O)(=O)N3CCCCCC3)c2)n1")
-25.1
>>> result("CSc1ccccc1OCc1cc(C(=O)NCCCc2ccccc2)no1")
12.9
>>> result("Cc1ccnc(NC(=O)c2ccc(Cl)c(S(=O)(=O)N3CCCCC3)c2)c1")
-79.1
>>> result("Cc1ccc(CN2CCN(CC(=O)N/N=C/c3ccccc3F)CC2)cc1")
-66.4
>>> result("Cc1ccc(NC(=O)c2ccc(Cl)c(S(=O)(=O)N3CCCCC3)c2)nc1")
-23.4
>>> result("COc1ccc(OC)c(-n2c(CNC3CCN(Cc4ccccc4)CC3)nc3ccccc3c2=O)c1")
-76.6
>>> result("O=C(CN1CCSCC1)N/N=C/c1ccccc1F")
0.735
>>> result("Cc1ccnc(NC(=O)c2ccc(Cl)c(S(=O)(=O)N3CCCC3)c2)c1")
-15.7
>>> result("Cc1cccc(NC(=O)c2ccc(C)c(S(=O)(=O)N3CCCCC3)c2)n1")
-36.7

---

ASSAYED_SYSTEM: human ether-à-go-go-related gene (hERG) potassium channel (human, UniProt Q12809);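 further: peak tail current of the secondary pulse compared with the same well before compound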
PROCEDURE_SUMMARY: primary screen, population patch clamp on CHO cells stably expressing hERG; higher = less effect of the substance
Hit rate of the full screen: of about 310,000 compounds, about 14,000 (4.5%) showed an effect of 50% or more. The effect is printed as a negative number. The entries come from a sample that favours strong results as a whole.
PARAMETER: hERG current change (%, negative = inhibition) at 10uM

>>> result("CN1CCN(CC(=O)Nc2cc(N(C)C)nc3ccccc23)CC1.Cl")
"8.25%"
>>> result("O=C(NCC1CCN(c2ccc(S(=O)(=O)N3CCOCC3)cc2)CC1)c1ccc(Cl)cc1")
"-57.2%"
>>> result("Cc1ccc(OCCOC(=O)c2cc(S(=O)(=O)N3CCCCC3)ccc2N2CCOCC2)cc1")
"-9.24%"
>>> result("CCN1CCCC1CNC(=O)Cn1cccc1C(=O)c1ccccc1 (centres unmarked)")
"-3.53%"
>>> result("Cc1ccc(OCCNC(=O)Cc2ccc(S(=O)(=O)N3CCOCC3)s2)cc1")
"-24%"
>>> result("COc1cccc(C(=O)NCC2CCN(c3ccc(S(=O)(=O)N4CCOCC4)cc3)CC2)c1")
"-22.9%"
>>> result("CN(CCOc1ccc(Cl)cc1)C(=O)c1cc(S(=O)(=O)N2CCOCC2)ccc1N1CCCC1")
"-63.7%"
>>> result("CC(C)(C)CC(C)(C)NCC(=O)Nc1c2c(nc3ccccc13)CCC2.O=C(O)C(=O)O")
"-3.35%"
>>> result("CN(CCOc1ccc(Cl)cc1)C(=O)Cc1ccc(S(=O)(=O)N2CCOCC2)s1")
"-73.1%"
>>> result("CC(=O)Nc1ccc(Sc2ncccc2C(=O)Nc2ccc(F)cc2)cn1")
"13.9%"
>>> result("Cc1csc(NC(=O)c2ccccc2)n1")
"16.8%"
>>> result("COc1cccc(CNS(=O)(=O)c2cc3c(cc2C)NC(=O)CO3)c1")
"-25.4%"
>>> result("O=C(Nc1nccs1)c1nc(-c2ccccc2)n(-c2ccccc2)n1")
"6.62%"
>>> result("C=CCOc1ccc(/C=N/NC(=O)C(C)Sc2ccccn2)cc1OCC (centres unmarked)")
"20.6%"
>>> result("CN1CCC(=NNC(=O)c2ccc(N(Cc3ccc(Cl)cc3)S(C)(=O)=O)cc2)CC1")
"-38%"
>>> result("O=C(Nc1ccc(Cl)cc1F)c1cccc2ccccc12")
"12.2%"
>>> result("Cc1cccc(C)c1NC(=O)CN(C)C(=O)c1cc(S(=O)(=O)N2CCOCC2)ccc1N1CCCC1")
"-3.99%"
>>> result("CCCCN(C)C(=O)c1ccc(S(=O)(=O)N2CCOCC2)cc1")
"17.3%"
>>> result("COC(=O)c1ccc2c(=O)n(-c3ccccc3)c(SCN3C(=O)c4ccccc4C3=O)nc2c1")
"11%"
>>> result("CC(C)N(C(=O)COC(=O)c1ccc(O)cc1)C(C)C")
"-1.54%"

---

Overview of reported hERG current change (%, negative = inhibition) at 10uM across a group of compounds:
ASSAYED_SYSTEM: human ether-à-go-go-related gene (hERG) potassium channel (human);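 further: peak tail current of the secondary pulse compared with the same well before compound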
PROCEDURE_SUMMARY: primary screen, population patch clamp on CHO cells stably expressing hERG; higher = less effect of the substance
The campaign covered roughly 310,000 compounds. About 14,000 (4.5%) showed an effect of 50% or more. Effects have a minus sign here. For the sample, strong results were picked, then their nearest neighbours and some compounds at random.
PARAMETER: hERG current change (%, negative = inhibition) at 10uM (%)

>>> result("O=C(Nc1ccc(F)cc1F)C1CCN(S(=O)(=O)c2cccnc2)CC1")
-1.85
>>> result("CCCc1cc(=O)oc2cc(C)cc(OCC(=O)NCc3ccncc3)c12")
-69.5
>>> result("CCc1cc(=O)oc2cc(C)cc(OCC(=O)NCc3cccnc3)c12")
-31.5
>>> result("CCCc1cc(=O)oc2cc(C)cc(OCC(=O)Nc3ccccn3)c12")
13.2
>>> result("Cc1cc2c(cc3c(=O)n(CC(=O)NCCCN4CC(C)CC(C)C4)ncn32)s1 (centres unmarked)")
-53.4
>>> result("CCCCNc1nc(Nc2ccc(C)c(Cl)c2)c2cnn(C)c2n1")
15.3
>>> result("CC1CC(C)CN(CCCNC(=O)Cn2ncn3cccc3c2=O)C1 (centres unmarked)")
-3.29
>>> result("CCCc1cc(=O)oc2cc(C)cc(OCC(=O)Nc3cccnc3)c12")
-0.927
>>> result("Cc1c2cnn(CC(=O)NCCCN3CC(C)CC(C)C3)c(=O)c2c(C)n1Cc1ccccc1Cl (centres unmarked)")
-36.7
>>> result("CCCCc1cc(=O)oc2cc(C)cc(OCC(=O)NCc3cccnc3)c12")
-54.1
>>> result("Cc1c2cnn(CC(=O)NCCCN3CCCCC3)c(=O)c2c(C)n1Cc1ccccc1")
9.96
>>> result("CCOC(=O)N1CCc2c(sc3nc(SC(C)C)n(N)c(=O)c23)C1")
-20.9
>>> result("CCOc1cc(/C=N/NC(=O)c2cccnc2)cc(Br)c1OCC(N)=O")
-22.5
>>> result("Cc1nn(CC(=O)NCCCN2CC(C)CC(C)C2)c(=O)c2cccn12 (centres unmarked)")
12.9
>>> result("CCCc1cc(=O)oc2cc(C)cc(OCC(=O)NCc3cccnc3)c12")
-44.4
>>> result("Cc1c2cnn(CC(=O)NCCCN3CC(C)CC(C)C3)c(=O)c2c(C)n1Cc1ccc(Cl)cc1 (centres unmarked)")
-52.6
>>> result("CCOc1cccc(N2C(=O)CC(N(CCc3ccc(OC)c(OC)c3)C(=O)CC)C2=O)c1 (centres unmarked)")
24.9
>>> result("COc1ccccc1N1CCN(C(=O)C(=O)c2c[nH]c3ccccc23)CC1")
0.156
>>> result("Cc1ccc(Cn2c(C)cc3c(c2=O)C(c2cccs2)C(C#N)=C(N)O3)cc1 (centres unmarked)")
15.8
>>> result("CN(C(=O)C1CCC(=O)N(CCCN2CCCC2=O)C1)C(C1CC1)C1CC1 (centres unmarked)")
12.1

---

Recorded hERG current change (%, negative = inhibition) at 10uM values for a group of compounds are listed next.
ASSAYED_SYSTEM: human ether-à-go-go-related gene (hERG) potassium channel (human);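 further: peak tail current of the secondary pulse compared with the same well before compound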
PROCEDURE_SUMMARY: primary screen, population patch clamp on CHO cells stably expressing hERG; higher = less effect of the substance
Hit rate of the full screen: of about 310,000 compounds, about 14,000 (4.5%) showed an effect of 50% or more. The effect is printed as a negative number. This is one part of a sample in which strong results are shown more often than they occur.
PARAMETER: hERG current change (%, negative = inhibition) at 10uM (%)

>>> result("O=C(CN1CCCCCC1)Nc1ccccc1F.O=C(O)C(=O)O")
9.38
>>> result("O=C(CN1CCCCC1)NN(Cc1ccccc1)c1ccccc1.O=C(O)C(=O)O")
-73.3
>>> result("CCCCCc1cc(=O)oc2c(C(CCN3CCN(c4ccccc4)CC3)c3ccc4c(c3)OCO4)c(OC)cc(OC)c12 (stereo not shown)")
18.7
>>> result("O=C(CN1CCCCC1)NC(=O)NCc1ccccc1")
14.3
>>> result("COc1ccc(C2(C(=O)Nc3ccc(C(=O)O)cc3)CCOCC2)cc1")
9.95
>>> result("Cc1c(NC(=O)C2Cc3ccccc3CN2C(=O)c2ccco2)c(=O)n(-c2ccccc2)n1C (stereo not shown)")
-13.7
>>> result("CCN(CC(=O)NC(=O)NCc1ccccc1)Cc1ccccc1")
-20.6
>>> result("O=C(Nc1ccccc1)Nc1ccccc1-n1ccnc1")
-18.2
>>> result("CCCCCc1cc(=O)oc2c(C(CCN3CCN(c4ccccc4)CC3)c3ccc(N(C)C)cc3)c(OC)cc(OC)c12 (stereo not shown)")
5.51
>>> result("CCCCCc1cc(=O)oc2c(C(CCN3CCCC3)c3ccc(N(C)C)cc3)c(OC)cc(OC)c12 (stereo not shown)")
-57.5
>>> result("O=C(Nc1cccc(F)c1)c1cc(-c2ccco2)nc2ccccc12")
9.26
>>> result("O=C(c1ccco1)N1CCN(Cc2cc(=O)c(OCc3cccc(F)c3)co2)CC1")
-76.4
>>> result("CCCCCc1cc(=O)oc2c(C(CCN3CCCCC3)c3ccc(OC)cc3)c(OC)cc(OC)c12 (stereo not shown)")
-59.1
>>> result("CS(=O)(=O)N1CCc2ccc(NC(=O)C3CCCO3)cc2C1 (stereo not shown)")
18.8
>>> result("COc1ccc(CSc2nncn2N)cc1Br")
4.98
>>> result("COc1ccc(S(=O)(=O)NCc2ccco2)cc1C(=O)N1CCOCC1")
21
>>> result("CCCCCc1cc(=O)oc2c(C(CCN(CC)CC)c3ccc(N(C)C)cc3)c(OC)cc(OC)c12 (stereo not shown)")
-33.6
>>> result("CCN(CC)CCC(c1ccc(N(C)C)cc1)c1c(OC)cc(OC)c2ccc(=O)oc12 (stereo not shown)")
-11.7
>>> result("COc1c(C)cc(Br)cc1C(=O)Nc1ccc(Cc2ccncc2)cc1")
-3.5

Values compiled from paper PMC4336329.
